assay: COS7 lysate on small-molecule microarray, probe aHis, 635 nm (AID 1123); details: COS7 cell lysate, fluorescence, higher = more signal;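 note: z-score combines 667nm fluorescence intensity with signal-to-noise per printed compound spot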
assay_metric: composite z-score

INSERT INTO assay_data (molecule, value_observed) VALUES
  ('C=CCC(OC(C)=O)[C@@H]1[C@@H](N(Cc2cc3ccccc3o2)C(=O)c2ccc(-c3ccccc3)cc2)c2cc(OCCCO)ccc2N1C(=O)c1ccc2ccccc2c1 (some centres undefined)', 0.612),
  ('CN(C)CCCNC(=O)[C@@H]1c2ccccc2C(=O)N(Cc2ccccc2Cl)[C@H]1c1ccc(CO)cc1', 1.17),
  ('C=C(/C(=C/C[C@H](OC(C)=O)c1ccccc1OCCO)c1cc(C(=O)OC)ccc1OC)C(C)C', 1.26),
  ('COCCCNC(=O)[C@@]1(Sc2ccc(C)cc2)CC(=O)N(C2CCCCC2)[C@@H]1c1ccc(CO)cc1', 1.62);

###

assay: binders from COS7 lysate, DM2A8 probe, primary screen, torsin A project, cell lysate, small-molecule microarray, fluorescence 635/667 (AID 1065); conditions: higher = more signal, COS7 lysate expressing mutant human TOR1A
Assign yes (1) whenever composite z-score does not fall below 0.08; assign no (0) whenever it does.

INSERT INTO measurements (molecule, assigned_category) VALUES
  ('C=C(C(=O)CC[C@@H](OC(C)=O)c1ccc(CO)o1)C(C)C', 'no (0)'),
  ('C=CC[C@]1(C(=O)O)COC(c2ccc(OCCCO)cc2)=N1', 'yes (1)'),
  ('CCOC(=O)C[C@H]1[C@H](OC(=O)Cc2ccc3c(c2)OCO3)[C@@H](NC(=O)Cc2ccc(OC)cc2)c2cc(OCCCO)ccc2N1C(=O)c1ccc2ccccc2n1', 'yes (1)'),
  ('C=CCNC(=O)[C@@H]1[C@H]2C(=O)O[C@H](c3ccccc3)[C@H](c3ccccc3)N2[C@H](c2ccc(O)cc2)[C@@]12C(=O)N(C(=O)OCCOC)c1ccc(C#CC3(O)CCCCCC3)cc12', 'no (0)'),
  ('O=C1NC(=O)C2C1C=CC(C(O)c1cccc3ccccc13)N2Nc1ccc(Cl)cc1Cl (centres undefined)', 'no (0)'),
  ('COC(=O)c1ccc([C@H](NC(=O)c2ccco2)[C@]2(C)C[C@H]2C2CCCCC2)cc1', 'no (0)'),
  ('COc1ccc(C(O)C2C=CC3C(=O)N(c4ccccc4)C(=O)C3N2Nc2ccc([N+](=O)[O-])cc2)cc1 (centres undefined)', 'no (0)'),
  ('COC(=O)[C@@]1(Cc2ccccc2)[C@H]2c3cc(C(=O)N(C)C)n(CCc4ccc(O)c(OC)c4)c3C[C@H]2CN1C(=O)c1ccccc1', 'yes (1)');

###

assay: yeast growth modulation, basal conditions, primary screen, YJM789 clinical isolate, OD600, 24 h (AID 1089);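 note: growth of clinical yeast isolate S. cerevisiae YJM 789 seeded 1000 cells per well; test concentration not given here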; settings: S. cerevisiae YJM789 growth, higher = more signal, called active from +8 up or from −8 down
Assign T whenever z-score does not fall below -0.03; assign F whenever it does.

INSERT INTO assay_data (compound, assigned_category) VALUES
  ('CN1C(=O)C2C=CC(C(O)COCc3ccccc3)N(N(c3ccccc3)c3ccccc3)C2C1=O (stereo not drawn)', 'T'),
  ('CC(C)(C)OC(=O)CC[C@]1(C(=O)NCc2ccccc2)N=C(c2ccc(OCCCO)cc2)O[C@H]1c1ccccc1CN=[N+]=[N-]', 'T'),
  ('CCOC(=O)C1CCCCN1 (stereo not drawn)', 'F'),
  ('COCCOC(=O)N1C(=O)[C@@]2(c3cc(C#CCCO)ccc31)[C@H](c1ccccc1OCCO)N1[C@H](c3ccccc3)[C@H](c3ccccc3)OC(=O)[C@H]1[C@@H]2C(=O)Nc1nc2ccccc2s1', 'T'),
  ('COC(=O)[C@@]1(Cc2ccc(OC)cc2)[C@H]2c3cc(C(=O)N(C)C)n(CCO)c3C[C@H]2CN1C(=O)c1ccccc1', 'F'),
  ('Cc1ccc(S[C@]2(C(=O)O)CC(=O)N(C3Cc4ccccc4C3)[C@@H]2c2ccc(CO)cc2)cc1', 'T'),
  ('CO[C@H]1O[C@H](CO)[C@@H](OC(=O)Nc2ccccc2-c2ccccc2)[C@H](OC(=O)Nc2ccc3c(c2)OCO3)[C@H]1OC(=O)Nc1ccc2c(c1)OCO2', 'T'),
  ('COc1ccc([Si](C)(C)[C@H]2[C@H](CC(=O)N(CCO)Cc3ccccc3)O[C@@]3(C(=O)N(Cc4cccc(N5CCOC5=O)c4)c4ccccc43)[C@@H]2C)cc1', 'F');
